# reported drug sensitivity score; entries follow
- Tested on: MDCK p60AmotL2-inducible + doxycycline (p60AmotL2 expressing)
- Protocol Description: drug sensitivity score (DSS) from 5-dose viability curve (DSS (area-based score, 0 = no response)); higher = more sensitive (stronger viability inhibition); extreme values may be limits of the assay
- Setup Conditions: doxycycline: 10 ng/mL; 72 h
Give the figure by itself; no unit, no explanation.

# example entries with known answers
Compound | Value Measured
COc1cccc(-c2ccc(NC(=O)C3=C(C(=O)O)CCC3)c(F)c2)c1 | 1.2
COc1cc2ncnc(Oc3cccc(NC(=O)Nc4cc(C(C)(C)C(F)(F)F)on4)c3)c2cc1OC | 0

### Prompt Please give the measured drug sensitivity score for this compound: Nc1cccc2c1CN(C1CCC(=O)NC1=O)C2=O (stereo not given) [Lenalidomide]
### Response 0

### Prompt Return reported drug sensitivity score; argument: O=S(=O)(c1cccc2c(O)nccc12)N1CCCNCC1 [Hydroxyfasudil]
### Response 0

### Prompt Given CNC(=O)c1ccccc1Sc1ccc2c(/C=C/c3ccccn3)n[nH]c2c1 , state its recorded drug sensitivity score.
### Response 5.7

* * *

- Test system: MDCK p60AmotL2-inducible + doxycycline (p60AmotL2 expressing)
- Protocol Description: drug sensitivity score (DSS) from 5-dose viability curve (DSS (area-based score, 0 = no response)); higher = more sensitive (stronger viability inhibition); extreme values may be limits of the assay
- Setup Conditions: doxycycline: 10 ng/mL; 72 h
Quick list: drug sensitivity score per entry.
API note: the answer field is a bare number with no unit suffix.

Example compounds with recorded drug sensitivity score:
Compound | drug sensitivity score
COc1ccc(-c2nc(N3CCOCC3)c3sc(CN(C)c4ncc(C(=O)NO)cn4)cc3n2)cn1 | 30.3
Cc1nc(NC(=O)N2CCC[C@H]2C(N)=O)sc1-c1ccnc(C(C)(C)C(F)(F)F)c1 | 1.6
COCC1(CO)C(=O)C2CCN1CC2 (centres undefined) | 0
NC(=O)N1CCC(CC(=O)N2CCC([C@H]3c4ncc(Br)cc4CCc4cc(Cl)cc(Br)c43)CC2)CC1 | 14.6
C/C=C1\NC(=O)[C@H]2CSSCC/C=C/[C@H](CC(=O)N[C@H](C(C)C)C(=O)N2)OC(=O)[C@H](C(C)C)NC1=O | 24.9
CO[C@H](C(=O)[C@@H](O)[C@@H](C)O)[C@@H]1Cc2cc3cc(O[C@H]4C[C@@H](O[C@@H]5C[C@@H](O)[C@H](O)[C@@H](C)O5)[C@H](O)[C@@H](C)O4)c(C)c(O)c3c(O)c2C(=O)[C@H]1O[C@H]1C[C@@H](O[C@@H]2C[C@@H](O)[C@@H](O[C@@H]3C[C@](C)(O)[C@H](O)[C@@H](C)O3)[C@@H](C)O2)[C@H](O)[C@@H](C)O1 | 14.1

### Prompt # query: drug sensitivity score of entry C[C@H]1Oc2cc(cnc2N)-c2c(nn(C)c2C#N)CN(C)C(=O)c2ccc(F)cc21
### Response 2.1

### Prompt Given the entry CC1(C)CNc2cc(NC(=O)c3cccnc3NCc3ccncc3)ccc21 , report its measured drug sensitivity score.
### Response 0

### Prompt Value lookup for drug sensitivity score; key = Cc1cc(Nc2cc(N3CCN(C)CC3)nc(Sc3ccc(NC(=O)C4CC4)cc3)n2)n[nH]1
### Response 8.6

### Prompt Using the record for O=C1CCC(N2C(=O)c3ccccc3C2=O)C(=O)N1 (centres undefined) [Thalidomide] , report its drug sensitivity score.
### Response 0

### Prompt Which measured drug sensitivity score value corresponds to COC(=O)C[C@](O)(CCCC(C)(C)O)C(=O)O[C@@H]1C(OC)=C[C@]23CCCN2CCc2cc4c(cc2[C@H]13)OCO4 ?
### Response 33.6

// data source = the supplement of paper PMC11003180
